Quick reference: exon inclusion enrichment index of the listed items.
B1: mRNA-splicing (parent)
chain: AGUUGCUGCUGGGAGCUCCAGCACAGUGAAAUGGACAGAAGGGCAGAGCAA

# Variants of: B1
# PROTOCOL DESCRIPTION: exon inclusion enrichment index; higher = more inclusion; WT1 exon 5 minigene, HEK293
PROPERTY LABEL: exon inclusion enrichment index

RESIDUE CODES	RECORDED MEASUREMENT
AGUUUCUUUUGGGAGCUCCAGCACAGUGAAUAGGACAGAAGGGCAGAGCAA	0.00567
AGUUGCUGCUGGGCCCUCCAGCACAGUGAAAUGGACAGAAGGGCAGAGCAA	0.0378
AGUUGACGACGGGAGCUCCAGCACAGUGAAAUGGACAGAAGGAGAGAGCAA	5.09
AGUUACCACCGGGAGCUCCAGCACAGGAAAAUGGACAGAAGGGCAGAGCAA	2.37
AGUUGACGACGGGAGCUCCAGCACCGUGAAAUGGACAGAAGGGCAGAGCAA	4.45
AGUUGACGACGGGAGCUCCAGCACAGUGAAAUGGACAGAAGGGUCGAGCAA	3.64
AGUUCUUCUCGGGAGCUCCAGCACUGUGAAAUGGACAGAAGGGCAGAGCAA	2.6
AGUUGAAGAAGGGAGCUCCAGCACAGUGAAAUUCACAGAAGGGCAGAGCAA	0.221
AGUUCUUCUCGGUUGCUCCAGCACAGUGAAAUGGACAGAAGGGCAGAGCAA	0.592
AGUUACCACCGGGAGCUCCAGCACAGUGAAAUGGCAAGAAGGGCAGAGCAA	1.46
